- assay_target: Phosphatidylinositol 4,5-bisphosphate 3-kinase catalytic subunit beta isoform (Homo sapiens)
- test: Inhibition of wild type PI3K-beta (unknown origin) assessed as decrease in ATP consumption at 10 uM using phosphotidylinositol bisphosphate and ATP measured after 60 mins by Kinase-Glo reagent based luminescence assay
parameter_measured: inhibition (%)

(1) COc1ccc(-c2c(OCCBr)ccc3c(=O)nc(N4CCOCC4)oc23)cc1
(2) O=c1nc(N2CCOCC2)oc2c(-c3cccc4ccccc34)c(OCc3ccccc3)ccc12
(3) COc1ccc(-c2c(OCc3ccccc3)ccc3c(=O)nc(N4CCOCC4)oc23)cc1
(4) Nc1cccc(-c2c(OCc3ccncc3)ccc3c(=O)nc(N4CCOCC4)oc23)c1
Reorder: inhibition, max to min. Write out the labels following the order that was asked for.
1, 3, 2, 4
(1: 39.7%, 3: 19.8%, 2: 4.67%, 4: -5.5%)

----------
- assay_target: cGMP-inhibited 3',5'-cyclic phosphodiesterase 3A (Homo sapiens)
- Sequence (Q14432 whole entry): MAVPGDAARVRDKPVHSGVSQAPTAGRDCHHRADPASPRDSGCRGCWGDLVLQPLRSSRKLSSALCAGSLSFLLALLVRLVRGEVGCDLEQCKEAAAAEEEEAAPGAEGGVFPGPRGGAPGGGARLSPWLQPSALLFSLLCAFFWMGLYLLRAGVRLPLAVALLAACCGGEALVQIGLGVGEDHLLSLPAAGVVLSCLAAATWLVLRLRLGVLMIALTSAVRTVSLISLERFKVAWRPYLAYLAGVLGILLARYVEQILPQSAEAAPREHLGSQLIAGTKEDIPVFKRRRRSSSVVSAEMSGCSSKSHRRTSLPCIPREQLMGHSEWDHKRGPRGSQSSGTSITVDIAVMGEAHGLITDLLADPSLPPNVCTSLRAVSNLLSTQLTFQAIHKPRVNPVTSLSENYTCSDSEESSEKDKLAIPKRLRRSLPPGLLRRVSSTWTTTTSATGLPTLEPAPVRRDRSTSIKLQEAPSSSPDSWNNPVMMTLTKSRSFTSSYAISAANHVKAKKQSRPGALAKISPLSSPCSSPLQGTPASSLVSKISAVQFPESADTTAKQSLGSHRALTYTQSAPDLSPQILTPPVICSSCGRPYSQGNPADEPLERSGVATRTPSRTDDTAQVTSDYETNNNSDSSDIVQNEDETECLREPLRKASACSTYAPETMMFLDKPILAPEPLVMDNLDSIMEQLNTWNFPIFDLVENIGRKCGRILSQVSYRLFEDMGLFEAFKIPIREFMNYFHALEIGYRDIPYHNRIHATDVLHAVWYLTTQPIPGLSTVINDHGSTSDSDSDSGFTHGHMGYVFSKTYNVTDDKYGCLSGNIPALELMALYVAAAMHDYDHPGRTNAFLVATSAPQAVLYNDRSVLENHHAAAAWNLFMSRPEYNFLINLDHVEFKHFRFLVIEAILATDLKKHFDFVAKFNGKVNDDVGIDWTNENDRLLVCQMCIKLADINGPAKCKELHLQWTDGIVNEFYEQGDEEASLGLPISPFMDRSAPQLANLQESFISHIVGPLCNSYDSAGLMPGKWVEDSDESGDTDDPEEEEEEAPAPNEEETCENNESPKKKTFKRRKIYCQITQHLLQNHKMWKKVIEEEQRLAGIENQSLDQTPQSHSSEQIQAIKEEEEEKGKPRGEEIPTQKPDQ
- test: Inhibition of human PDE3A at 10 uM by HTRF assay
parameter_measured: inhibition (%)

// fetch inhibition for O=c1nc(N2CCOCC2)oc2c(-c3cccc4c3sc3ccccc34)c(OCc3ccccc3)ccc12 ; system: cGMP-inhibited 3',5'-cyclic phosphodiesterase 3A (Homo sapiens)
31.2

// fetch inhibition for Nc1cccc(-c2c(OCc3ccncc3)ccc3c(=O)nc(N4CCOCC4)oc23)c1 ; system: cGMP-inhibited 3',5'-cyclic phosphodiesterase 3A (Homo sapiens)
43.6

// fetch inhibition for O=c1nc(N2CCOCC2)oc2c(-c3ccc(Cl)cc3)c(OCc3cccnc3)ccc12 ; system: cGMP-inhibited 3',5'-cyclic phosphodiesterase 3A (Homo sapiens)
43.6

// fetch inhibition for O=c1nc(N2CCOCC2)oc2c(-c3ccccc3)c(OCc3ccccn3)ccc12 ; system: cGMP-inhibited 3',5'-cyclic phosphodiesterase 3A (Homo sapiens)
71.3

// fetch inhibition for O=c1nc(N2CCOCC2)oc2c(-c3ccc(Cl)cc3)c(OCc3ccncc3)ccc12 ; system: cGMP-inhibited 3',5'-cyclic phosphodiesterase 3A (Homo sapiens)
56.1

(A) Nc1cccc(-c2c(OCc3ccccn3)ccc3c(=O)nc(N4CCOCC4)oc23)c1
(B) O=c1nc(N2CCOCC2)oc2c(-c3cccs3)c(OCc3ccccn3)ccc12
Which numeric inhibition is bigger, that of A or that of B ? Pick one and reply with its label.
B

(a) CN1CCN(CCOc2ccc3c(=O)nc(N4CCOCC4)oc3c2-c2ccc(Cl)cc2)CC1
(b) O=c1nc(N2CCOCC2)oc2c(-c3ccsc3)c(OCc3ccccn3)ccc12
Form: Entry with minimum inhibition (choose one): a / b Pick one and reply with its label.
a
(a: 21.8%, b: 88.8%)

(a) O=c1nc(N2CCOCC2)oc2c(-c3ccc(Cl)cc3)c(OCCBr)ccc12
(b) O=c1nc(N2CCOCC2)oc2c(-c3cccs3)c(OCc3cccnc3)ccc12
Form: Entry with minimum inhibition (choose one): a / b Pick one and reply with its label.
a
(a: 11.3%, b: 61.8%)

(a) O=c1nc(N2CCOCC2)oc2c(-c3ccccc3)c(OCc3ccncc3)ccc12
(b) COc1ccc(-c2c(OCc3ccncc3)ccc3c(=O)nc(N4CCOCC4)oc23)cc1
Which numeric inhibition is bigger, that of a or that of b ? Pick one and reply with its label.
a

(I) O=c1nc(N2CCOCC2)oc2c(-c3cccnc3)c(OCc3ccccc3)ccc12
(II) COc1ccc(-c2c(OCCN3CCN(C)CC3)ccc3c(=O)nc(N4CCOCC4)oc23)cc1
Which numeric inhibition is bigger, that of I or that of II ? Pick one and reply with its label.
I
(I: 46.9%, II: 11.5%)

(P) O=c1nc(N2CCOCC2)oc2c(-c3ccsc3)c(OCc3ccccc3)ccc12
(Q) O=c1nc(N2CCOCC2)oc2c(-c3cccc4c3oc3ccccc34)c(OCc3ccccc3)ccc12
(R) CN1CCN(CCOc2ccc3c(=O)nc(N4CCOCC4)oc3c2-c2ccccc2)CC1
Put the entries in order of inhibition, starting with the largest number. Write out the labels following the order that was asked for.
Q, P, R
(Q: 62.9%, P: 38.8%, R: 11.4%)

Every entry's value here was drawn from ChEMBL document CHEMBL4043200.
